Hey, just so you know, these numbers are from PubChem BioAssay (NCI).

Tested on: DU-145 prostate
Protocol text: NCI tumour cell line growth inhibition, 48 h
Measurement name: TGI

See these solved cases before continuing.
COc1ccc(P2(=S)OC(C)(C)C(C)(C)O2)cc1
> 100 µM
N#Cc1c(-c2ccc(Cl)cc2Cl)nc2[nH][nH]c(=S)n2c1=O
> 100 µM
COC(CNC(=O)C(C)NC(=O)/C=C/c1ccccc1)OC (stereo not given)
> 100 µM
COc1ccc2[nH]cc(C3(c4c[nH]c5ccc(OC)cc45)C(=O)Nc4ccc(F)cc43)c2c1
13.1 µM

The reported value for CS(=O)(=O)CCNCc1nc(-c2ccc3ncnc(Nc4ccc(OCc5cccc(C(F)(F)F)c5)cc4)c3c2)cs1 in terms of TGI is > 25 µM

###

Tested on: 786-0 renal
Protocol text: NCI tumour cell line growth inhibition, 48 h; in the data active = GI50 below about 0.43 µM; inactive = the rest
Write down the outcome that applies. Available outcomes: active, inactive

Consider the following illustrative entries.
COc1c(OC[C@H](O)CN2CCOCC2)ccc2c3n(c(=NC(=O)c4cccnc4C)nc12)CCN3
active
Cc1nn(-c2ccc(Cl)cc2)c2nc3c(nc12)C(=O)c1ccccc1-3
inactive

-- ask Write down the call the test reported for this compound. Item: COc1cc(-c2cc(-c3cc4c([nH]c5ccccc54)c(-c4cc(OC)c(OC)c(OC)c4)n3)cc(-c3ccccc3)n2)cc(OC)c1OC
-- reply inactive

-- ask Status in this test for CS(=O)(=O)CCNCc1nc(-c2ccc3ncnc(Nc4ccc(OCc5cccc(C(F)(F)F)c5)cc4)c3c2)cs1 ?
-- reply inactive

-- ask Test call for this compound, please: CCCN1C(=O)N(CCC)C2C1NC(=S)N2/N=C/C=C/c1ccccc1OC (stereo unspecified)
-- reply inactive

-- ask Record request — test call for Nc1nc(/C=C\c2ccc([N+](=O)[O-])s2)nc(N2CCCC2)n1
-- reply inactive

-- ask Answer briefly: the call reported for Clc1ccc2[nH]cc(-c3nnnn3-c3ccccc3)c2c1 in this assay.
-- reply inactive

-- ask Assay result, entry O=C1/C(=C/c2cccc(Cl)c2Cl)N=C(c2ccccc2)N1C1CC1 — outcome?
-- reply inactive

-- ask Which outcome was assigned to COc1cc(Cn2c(-c3ccccc3)c(Cl)c3c2-c2oncc2CC3)cc(OC)c1 in this test?
-- reply inactive

-- ask I would be grateful if you could indicate the recorded call for COc1ccc2[nH]cc(C3(c4c[nH]c5ccc(OC)cc45)C(=O)Nc4ccc(F)cc43)c2c1 .
-- reply inactive

-- ask I'd appreciate the recorded outcome for CCn1c2ccccc2c2cc(NC(=O)Nc3ccc([N+](=O)[O-])cc3C)ccc21 from this test.
-- reply inactive

###

System: COLO 205 colon
Protocol text: NCI tumour cell line growth inhibition, 48 h
TGI reference
Give the value, in units of µM, as a plain number.

Solved entries:
CCOC(=O)c1nnc2c(C(=O)OCC)c3ccccc3n2c1N
49.6
COc1cc2c(C)cc(O)cc2c2cc(O)c(C)cc12
19.6

With those in mind, consider the next compound.
COLO 205 colon assay, compound COc1cc(NCc2ccc3nc(N)nc(N)c3c2C)cc(OC)c1OC (tested in a mixture with another compound) , recorded TGI = 45.1

###

System: OVCAR-8 ovarian
Protocol text: NCI tumour cell line growth inhibition, 48 h; in the data active = GI50 below about 0.43 µM; inactive = the rest
Reply using exactly one outcome from 1.0 for active, 0.0 for inactive

NCCNc1c2c(c(NCCN)c3[nH]ccc13)C(=O)c1ccccc1C2=O
1.0
COc1ccc2c(c1)C(=O)c1c-2c(N2CCN(C(=O)CNCCNCCO)CC2)nc2ccccc12
0.0
C=CCCCCOc1ccccc1-c1cnc(OCCCCC=C)n1C
0.0
COc1ccc(-c2nn(-c3ccc(NC(=O)c4ccc(Cl)c(Cl)c4)cc3)cc2-c2ccncc2)cc1Cl
0.0
COc1ccc(C(=O)/C=C/c2cc(-c3cc(OC)c(OC)c(OC)c3)n[nH]2)cc1OC
0.0

-- ask Hi, sorry to bother you, what did the test record for C#C[C@]1(O)CCC2C3CCc4cc(O)ccc4C3CC[C@@]21C (stereo partly specified) ?
-- reply 0.0
